tested on: KM12 colon; experiment: NCI tumour cell line growth inhibition, 48 h
Readings of GI50 for the listed compounds

# example entries with known answers
Quickly give me recorded GI50 for `O=C(Nc1nc2ccc(F)cc2s1)c1cccnc1Nc1ccc(Cl)cc1Cl` 2780 nM

Using the record for `N#Cc1c(-c2ccc(Cl)cc2)csc1NC(=O)Nc1cccc(C(F)(F)F)c1` , state its measured GI50. 2640 nM

Annotate the compound `CNc1ccc(N=Nc2cccc3ncccc23)cc1` with its measured GI50. 34300 nM

Now for the compound whose GI50 we want.
Query GI50 for CC(=O)OC1Oc2cc(C)c(C)cc2-c2oc(=O)c(-c3ccccc3)cc21 (centres undefined) 307 nM

----------
In this section we review reported TGI values for a set of molecules.
system: DU-145 prostate; assay: NCI tumour cell line growth inhibition, 48 h

Quick one: give measured TGI for `CCn1c(-c2nonc2N)nc2c(C#CC(C)(C)O)ncc(OC[C@@H]3CCCN3)c21` > 22.9 µM

Name the recorded TGI of the item `CC(C)c1ccc2c(c1)c(SC(C)(C)C)c(CC(C)(C)C(=O)O)n2Cc1ccc(Cl)cc1` in your answer. 19 µM

Indicate the recorded TGI value for this molecule: `O=C1CCCC2=C1CC1=C(CCCC1=O)N2c1ccc(-c2ccccc2)cc1` > 100 µM

Further cases:
Identify the reported TGI for the following entry. `Brc1ccc2[nH]cc(-c3csc(-c4c[nH]c5ccc(Br)cc45)n3)c2c1` 6.89 µM

Please indicate TGI recorded for Cc1nn(C(=O)c2ccccc2O)c2c1C(c1ccc([N+](=O)[O-])cc1)SC(N)=N2 (stereo not given) > 10 µM

----------
system: SW-620 colon; assay: NCI tumour cell line growth inhibition, 48 h
EXPERIMENTAL READOUT: TGI

Identify the reported TGI for the following entry. CC(=O)OC1COC(N2c3ccccc3[C@@H]3CCc4c([nH]c5ccccc45)[C@@H]32)C(OC(C)=O)C1OC(C)=O (mixture of isomers) > 100 µM

Tell me its TGI given `COc1ccc2c(c1)-c1nc(=S)n(CCN(C)C)c3ccc([N+](=O)[O-])c(c13)N2` as the entry. 3.07 µM

Write down TGI measured for item Cc1nn(C(=O)c2ccccc2O)c2c1C(c1ccc([N+](=O)[O-])cc1)SC(N)=N2 (stereo not drawn) > 10 µM

Please give measured TGI of the following entry: C=C1C(=O)C23CC1CCC2C12CO[C@@]3(O)[C@@H](O)C1C(C)(C)C=CC2=O (stereo partly drawn) 10.2 µM

Return TGI for the following molecule: `C=CCN(c1cc(OC)c2[nH]c(C(=O)O)c(C)c2c1[N+](=O)[O-])S(C)(=O)=O` > 100 µM

More entries:
Answer with reported TGI of `COc1cc(/C=C2/C(=O)N(C(=O)c3ccccc3O)N=C2C)ccc1O` > 100 µM

Find the measured TGI of CC(C)(C)c1cc(C(=O)O)c(C(c2ccccc2)c2ccccc2C(=O)O)c(C(=O)O)c1 (stereo not drawn) and report it. > 100 µM

----------
tested on: MDA-MB-435; experiment: NCI tumour cell line growth inhibition, 48 h
The entries below are paired with their reported TGI.
Just the number please, in µM, no unit attached.

Enter TGI (test system MDA-MB-435) for `C#CCn1cc(C=C2C(=O)NC(=S)NC2=O)c2cc(Cl)ccc21` 4.36

Continue with the molecule presented below.
Please tell me the measured TGI for `Cc1cc(Nc2cc(N3CCN(C)CC3)nc(C#Cc3ccccc3)n2)n[nH]1` ; system: MDA-MB-435. 16.1
